tested on: HLA-B HiBit (MHC class I); assay: HLA-B HiBit luminescent reporter assay; conditions: HLA-B HiBit clone AB-7 cells, 4.0 ng/ml IFN-β, 24 hours; IFN-β = 0%, DMSO alone = −100% activity
Readings of HiBit Efficacy for the listed compounds
The figure you give is taken to be in %; do not add the unit.

As a guide, the following entries are already answered.
compound: CC(C)[C@]12O[C@H]1[C@@H]1O[C@@]13[C@@]1(C)CCC4=C(COC4=O)[C@@H]1C[C@@H]1O[C@@]13C2=O [Triptonide, triptonide]
recorded_value: 100

compound: Cc1sc2c(c1C)C(c1ccc(Cl)cc1)=N[C@@H](CC(=O)Nc1ccc(OCCOCCOCCOCCNc3cccc4c3C(=O)N(C3CCC(=O)NC3=O)C4=O)cc1)c1nnc(C)n1-2 (some centres unmarked)
recorded_value: 71

compound: N#CC[C@H](C1CCCC1)n1cc(-c2ncnc3[nH]ccc23)cn1
recorded_value: 100

compound: CCS(=O)(=O)N1CC(CC#N)(n2cc(-c3ncnc4[nH]ccc34)cn2)C1
recorded_value: 100

Please examine the following record next.
Query (compound): "C[C@@H]1CCN(C(=O)CC#N)C[C@@H]1N(C)c1ncnc2[nH]ccc12" ; field requested: HiBit Efficacy
100

Provenance of the data: paper PMC7859889
